Kindly supply the reported IC50 values for the records listed here.
Target: human CXCR3 (N-delta 4) (Homo sapiens, UniProt P49682)
Construct: CD8 leader (N); Flag; expressed in transfected cells; membranes prepared
Sequence (P49682 5-368 limits assumed): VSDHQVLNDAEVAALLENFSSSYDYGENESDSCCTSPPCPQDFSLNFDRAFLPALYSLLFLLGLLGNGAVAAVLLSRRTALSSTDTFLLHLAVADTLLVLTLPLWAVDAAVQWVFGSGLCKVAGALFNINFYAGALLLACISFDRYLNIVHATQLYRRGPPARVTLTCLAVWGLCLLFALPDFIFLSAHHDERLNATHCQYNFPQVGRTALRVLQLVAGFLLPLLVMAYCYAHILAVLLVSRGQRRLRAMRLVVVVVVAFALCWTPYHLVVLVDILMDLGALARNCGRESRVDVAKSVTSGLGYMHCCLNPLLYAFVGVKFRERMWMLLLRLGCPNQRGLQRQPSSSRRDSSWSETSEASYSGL
Experiment: Human CXCR3 (N-delta 4) Scintillation Proximity Assay (SPA), [125I] IP-10 binding to Ba/F3-hCXCR3 membranes
Conditions: IC50 rating, Table 1; read-out: IC50

Find the measured IC50: item `CC[C@H]1CN(c2nc(N)c(C(N)=O)nc2Cl)CCN1C1CCN(Cc2ccc(Cl)cc2N2CCN(C)C2=O)CC1` , target or system human CXCR3 (N-delta 4) (Homo sapiens, UniProt P49682).
< 25 nM

Lab request: please report IC50 under test system human CXCR3 (N-delta 4) (Homo sapiens, UniProt P49682) for `CC[C@H]1CN(c2nc(N)c(C(=O)NC)nc2Cl)CCN1C1CCN([C@H](C(=O)OC)c2ccc(Cl)cc2)CC1`
> 100 nM

Kindly state the measured IC50 obtained for `CC[C@H]1CN(c2nc(N)c(C(=O)NC)nc2Cl)CCN1C1CCN([C@@H](C(=O)OC)c2ccc(Cl)cc2)CC1` with human CXCR3 (N-delta 4) (Homo sapiens, UniProt P49682).
< 25 nM

Write down the reported IC50 of `CC[C@H]1CN(c2nc(N)c(C(=O)NCCNS(C)(=O)=O)nc2Cl)CCN1C1CCN(Cc2ccc(Cl)cc2C(=N)NC)CC1` , test system: human CXCR3 (N-delta 4) (Homo sapiens, UniProt P49682).
25 to 100 nM

API: value(readout=IC50, system=human CXCR3 (N-delta 4) (Homo sapiens, UniProt P49682)) for record `CC[C@H]1CN(c2nc(N)c(C(N)=O)nc2Cl)CCN1C1CCN(Cc2ccc(Cl)cc2CCNC(C)=O)CC1`
25 to 100 nM

Short answer please: IC50, human CXCR3 (N-delta 4) (Homo sapiens, UniProt P49682), entry `CC[C@H]1CN(c2nc(N)c(C(=O)NCCNS(C)(=O)=O)nc2Cl)CCN1C1CCN([C@@H](CO)c2ccc(Cl)cc2)CC1`
< 25 nM

API: value(readout=IC50, system=human CXCR3 (N-delta 4) (Homo sapiens, UniProt P49682)) for record `CC[C@H]1CN(c2nc(N)c(C(=O)NC3CC3)nc2Cl)CCN1C1CCN(Cc2ccc(C#N)cc2OCC(=O)NC2CC2)CC1`
< 25 nM

Reported IC50 for human CXCR3 (N-delta 4) (Homo sapiens, UniProt P49682), given `CC[C@H]1CN(c2nc(N)c(C(=O)NCCO)nc2Cl)CCN1C1CCN([C@@H](C(=O)OC)c2ccc(C#N)cc2)CC1` ?
< 25 nM

Form entry - test system: human CXCR3 (N-delta 4) (Homo sapiens, UniProt P49682); read-out: IC50; compound: `CC[C@H]1CN(c2nc(N)c(C(N)=O)nc2Cl)CCN1C1(C)CCN(Cc2ccc(Cl)cc2C(N)=O)CC1`
> 100 nM

* * *

Target: human CXCR3 (N-delta 4) (Homo sapiens, UniProt P49682)
Construct: CD8 leader (N); Flag; expressed in transfected cells; membranes prepared
Assay: Human CXCR3 (N-delta 4) Scintillation Proximity Assay (SPA), [125I] IP-10 binding to Ba/F3-hCXCR3 membranes
Conditions: IC50 rating, Table 1; read-out: IC50
From the text: The inventive compounds can readily be evaluated to determine activity at the CXCR3 receptors by known methods, such as, for example, development of a human CXCR3 (N-delta 4) Binding Assay. Cloning and Expression of Human CXCR3 (N-delta 4): The DNA encoding human CXCR3 was cloned by PCR using human genomic DNA (Promega, Madison, Wis.) as a template. […]
Task for the reader: assign each of the following compounds its reported IC50.

Look up IC50 with human CXCR3 (N-delta 4) (Homo sapiens, UniProt P49682) for this compound: `CC[C@H]1CN(c2nc(N)c(C(=O)NC)nc2Cl)CCN1C1CCN(C(=O)c2ccc(OC(F)(F)F)cc2)CC1`
25 to 100 nM

Find IC50 (human CXCR3 (N-delta 4) (Homo sapiens, UniProt P49682)) for the entry `CC[C@H]1CN(c2nc(N)c(C(=O)NC)nc2Cl)CCN1C1CCN([C@@H](C(=O)O)c2ccc(Cl)cc2)CC1`
< 25 nM

Record lookup: for human CXCR3 (N-delta 4) (Homo sapiens, UniProt P49682), what IC50 belongs to `CC[C@H]1CN(c2nc(N)c(C(=O)NC3CC3)nc2Cl)CCN1C1CCN(Cc2ccc(Cl)cc2O)CC1` ?
< 25 nM

Reported IC50 for human CXCR3 (N-delta 4) (Homo sapiens, UniProt P49682), given CC[C@H]1CN(c2nc(N)c(C(N)=O)nc2Cl)CCN1C1CCN(Cc2ccc(Cl)cc2CC(=O)NCC(C)O)CC1 (stereo partly drawn) ?
< 25 nM

Provide value of IC50 for this record tested with human CXCR3 (N-delta 4) (Homo sapiens, UniProt P49682): CC[C@H]1CN(c2nc(N)c(C(N)=O)nc2Cl)CCN1C1CCN(Cc2ccc(Cl)cc2C2NC(=O)NC2=O)CC1 (stereo partly drawn) [compound 405]
> 100 nM

Find the measured IC50: item `CC[C@H]1CN(c2nc(N)c(C(N)=O)nc2Cl)CCN1C1CCN(C(=O)c2ccc(Cl)cc2)CC1` , target or system human CXCR3 (N-delta 4) (Homo sapiens, UniProt P49682).
25 to 100 nM

Query IC50 on human CXCR3 (N-delta 4) (Homo sapiens, UniProt P49682) for `CC[C@H]1CN(c2nc(N)c(C(=O)NC[C@@H](C)O)nc2Cl)CCN1C1CCN(Cc2ccc(C#N)cc2)CC1`
< 25 nM

For human CXCR3 (N-delta 4) (Homo sapiens, UniProt P49682), provide IC50 of `CC[C@H]1CN(c2nc(N)c(C(=O)N=C(N)N)nc2Cl)CCN1C1CCN(Cc2ccc(Cl)cc2F)CC1` please.
> 100 nM

Form field: IC50 recorded for CC[C@H]1CN(c2nc(N)c(C(N)=O)nc2Cl)CCN1C1CCN(C(CO)c2ccc(Cl)cc2)CC1 (stereo partly drawn) with human CXCR3 (N-delta 4) (Homo sapiens, UniProt P49682) (enter value)
< 25 nM

Kindly state the measured IC50 obtained for CCC(O)CNC(=O)c1nc(Cl)c(N2CCN(C3CCN(C(=O)c4ccc(Cl)cc4)CC3)[C@@H](CC)C2)nc1N (stereo partly drawn) with human CXCR3 (N-delta 4) (Homo sapiens, UniProt P49682).
< 25 nM

GET /values?readout=IC50&system=human CXCR3 (N-delta 4) (Homo sapiens, UniProt P49682)&item= `CC[C@H]1CN(c2ncc(C(=O)NC)nc2C)CCN1C1CCN(C(=O)c2ccc(F)c(Cl)c2)CC1`
< 25 nM

Record `CC[C@H]1CN(c2ncc(C(N)=O)nc2Cl)CCN1C1CCN([C@H](CO)c2ccc(Cl)cc2)CC1` : what is its IC50 with human CXCR3 (N-delta 4) (Homo sapiens, UniProt P49682)?
< 25 nM

Find IC50 (human CXCR3 (N-delta 4) (Homo sapiens, UniProt P49682)) for the entry CC[C@H]1CN(c2nc(N)c(C(N)=O)nc2Cl)CCN1C1CCN(Cc2ccc(Cl)cc2)[C@H](C(N)=O)C1 (stereo partly drawn)
25 to 100 nM

Query for human CXCR3 (N-delta 4) (Homo sapiens, UniProt P49682): what IC50 does the record show for `CC[C@H]1CN(c2ncc(C(N)=O)nc2C)CCN1C1CCN([C@@H](CO)c2ccc(Cl)cc2)CC1` ?
< 25 nM

So what IC50 did `CC[C@H]1CN(c2nc(N)c(C(=O)NCCO)nc2Cl)CCN1C1CCN(C(=O)c2ccc(Cl)cc2OCCNS(=O)(=O)C(F)(F)F)CC1` get with human CXCR3 (N-delta 4) (Homo sapiens, UniProt P49682)?
< 25 nM

Write down the reported IC50 of `CC[C@H]1CN(c2nc(N)c(C(=O)NCCO)nc2Cl)CCN1C1CCN(Cc2cc(F)c(Cl)cc2OCCCO)CC1` , test system: human CXCR3 (N-delta 4) (Homo sapiens, UniProt P49682).
< 25 nM

Field: IC50 (human CXCR3 (N-delta 4) (Homo sapiens, UniProt P49682)). Entry: `CC[C@H]1CN(c2nc(N)c(C(=O)NC)nc2Cl)CCN1C1CCN(C(=O)c2ccc(Br)cc2F)CC1`
25 to 100 nM

API: value(readout= IC50, system= human CXCR3 (N-delta 4) (Homo sapiens, UniProt P49682), query= `CC[C@H]1CN(c2nc(N)c(C(=O)NCCO)nc2Cl)CCN1C1CCN(Cc2c(F)cc(F)c(F)c2O)CC1` )
> 100 nM

Request: IC50, test system human CXCR3 (N-delta 4) (Homo sapiens, UniProt P49682), entry `CC[C@H]1CN(c2nc(N)c(C(=O)NCCO)nc2Cl)CCN1C1CCN(Cc2ccc(O)c(F)c2)CC1`
> 100 nM

# query: IC50 | item `CC[C@H]1CN(c2ncc(C(=O)NC3=NCCN3)nc2Cl)CCN1C1CCN(C(=O)c2ccc(Cl)cc2)CC1` | system: human CXCR3 (N-delta 4) (Homo sapiens, UniProt P49682)
> 100 nM

Request body: readout IC50, system human CXCR3 (N-delta 4) (Homo sapiens, UniProt P49682), query `CC[C@H]1CN(c2nc(N)c(C(=O)NCCO)nc2Cl)CCN1C1CCN(C(=O)c2ccc(F)c(O)c2)CC1` . Return the value.
< 25 nM

Notebook: pull reported IC50 for human CXCR3 (N-delta 4) (Homo sapiens, UniProt P49682), entry `CC[C@H]1CN(c2nc(N)c(C(N)=O)nc2Cl)CCN1C1CCN(Cc2ccc(Cl)cc2[C@@H](O)C(=O)NC)CC1`
> 100 nM

# get_value(readout= IC50, system= human CXCR3 (N-delta 4) (Homo sapiens, UniProt P49682)) for `CC[C@H]1CN(c2nc(N)c(C(=O)NCCO)nc2Cl)CCN1C1CCN(C(=O)c2ccc(Cl)cc2OCCN)CC1`
> 100 nM

Record lookup: for human CXCR3 (N-delta 4) (Homo sapiens, UniProt P49682), what IC50 belongs to `CC[C@H]1CN(c2nc(N)c(C(=O)NCCO)nc2Cl)CCN1C1CCN(Cc2ccc(Cl)cc2NC(N)=O)CC1` ?
< 25 nM
